# tgt: Macrophage colony-stimulating factor 1 receptor (Homo sapiens) (UniProt P07333)
# Sequence (P07333 whole entry): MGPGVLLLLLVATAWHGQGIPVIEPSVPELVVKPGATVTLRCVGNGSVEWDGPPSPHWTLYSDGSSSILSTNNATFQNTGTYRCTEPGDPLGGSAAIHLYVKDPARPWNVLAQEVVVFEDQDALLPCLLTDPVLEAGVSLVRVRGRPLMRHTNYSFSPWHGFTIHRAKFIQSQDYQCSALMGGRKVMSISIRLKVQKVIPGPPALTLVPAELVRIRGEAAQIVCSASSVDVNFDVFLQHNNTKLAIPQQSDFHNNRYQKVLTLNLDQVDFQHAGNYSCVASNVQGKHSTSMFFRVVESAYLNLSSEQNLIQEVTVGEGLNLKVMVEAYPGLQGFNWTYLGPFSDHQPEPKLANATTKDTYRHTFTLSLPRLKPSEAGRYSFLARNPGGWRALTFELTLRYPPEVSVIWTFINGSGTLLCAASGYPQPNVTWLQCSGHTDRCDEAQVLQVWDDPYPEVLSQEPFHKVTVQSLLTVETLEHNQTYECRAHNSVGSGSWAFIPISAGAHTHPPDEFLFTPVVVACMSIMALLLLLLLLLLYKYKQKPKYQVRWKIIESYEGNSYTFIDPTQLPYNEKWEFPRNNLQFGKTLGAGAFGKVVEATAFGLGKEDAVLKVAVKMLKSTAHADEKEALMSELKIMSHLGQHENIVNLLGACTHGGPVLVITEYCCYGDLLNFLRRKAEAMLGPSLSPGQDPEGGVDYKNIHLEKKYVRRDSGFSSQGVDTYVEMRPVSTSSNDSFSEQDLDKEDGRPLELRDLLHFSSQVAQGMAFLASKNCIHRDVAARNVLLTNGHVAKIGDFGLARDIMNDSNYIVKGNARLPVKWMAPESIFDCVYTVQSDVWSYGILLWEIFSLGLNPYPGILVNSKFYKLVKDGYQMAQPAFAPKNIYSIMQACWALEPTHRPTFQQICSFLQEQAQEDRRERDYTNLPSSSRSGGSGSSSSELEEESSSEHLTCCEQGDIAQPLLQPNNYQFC
# protocolConditions: at 1 µM
Exercise: for every item that follows, state its recorded inhibition.
Value and unit, in that order.

Use the examples below as a reference point.
Cc1cc(-c2ccco2)cc(C)c1/C=C/c1cncc(-c2nn[nH]n2)c1: 2.32%
COc1cccc(COc2cc(-n3cnc4ccccc43)sc2C(N)=O)c1: -1.4%
COc1cccc(-n2ncc3c(N/N=C/c4ccncc4)ncnc32)c1: 30.2%

Go through the items and report each one's inhibition.
1. CCn1c(-c2nonc2N)nc2c(C#CC(C)(C)O)ncc(OC[C@@H]3CCCN3)c21
2. CCn1c(-c2nonc2N)nc2c(C#CC(C)(C)O)nc(O[C@@H](CN)c3ccccc3)cc21
3. CCn1c(-c2nonc2N)nc2c(C#CCN)ncc(OCCCN)c21

1. 1.4%
2. 1.9%
3. 0.9%

Go through the items and report each one's inhibition.
1. NS(=O)(=O)c1ccc(-c2ccc3c(NC(=O)C4CC4)n[nH]c3c2)cc1
2. COc1cc(C=NNc2ncnc3c2cnn3Cc2ccccc2)ccc1O
3. Fc1ccc(-c2ncn(C3CCNCC3)c2-c2ccnc(Oc3ccccc3)n2)cc1
4. Nc1nonc1-c1nc2cnccc2n1C1CCCCC1

["1.78%", "58.7%", "3.02%", "76.3%"]

The reported inhibition of the compound NS(=O)(=O)c1ccc(N/C=C2\C(=O)Nc3ccc4ncsc4c32)cc1 was 58.6%

###

Exercise: for every item that follows, state its recorded inhibition.
# tgt: Dual specificity tyrosine-phosphorylation-regulated kinase 1A (Homo sapiens)
# protocolConditions: at 0.1 µM
# Description: GSK_PKIS: DYRK1A mean inhibition at 0.1 uM [Nanosyn]
Give bare numbers, in %.

Go through the items and report each one's inhibition.
1. Fc1ccc(-c2ncn(C3CCNCC3)c2-c2ccnc(Oc3ccccc3)n2)cc1
2. NS(=O)(=O)c1ccc(N/C=C2\C(=O)Nc3ccc4ncsc4c32)cc1

-2.73
21.7

Go through the items and report each one's inhibition.
1. NC(=O)c1sc(-n2cnc3cc(C(F)(F)F)ccc32)cc1OCc1ccccc1Br
2. CCn1c(-c2nonc2N)nc2c(C#CC(C)(C)O)ncc(OCC3CCNCC3)c21
3. CCn1c(-c2nonc2N)nc2c(C#CC(C)(C)O)ncc(OC[C@@H]3CCCN3)c21

1. -0.2
2. -3.13
3. -0.49

Go through the items and report each one's inhibition.
1. Nc1nonc1-c1nc2cnccc2n1C1CCCCC1
2. COc1cccc(COc2cc(-n3cnc4ccccc43)sc2C(N)=O)c1
3. Cc1cc(-c2ccco2)cc(C)c1/C=C/c1cncc(-c2nn[nH]n2)c1

1: 34.3; 2: 0.34; 3: -0.27

###

# tgt: Maternal embryonic leucine zipper kinase (Homo sapiens) (UniProt Q14680)
# Sequence (Q14680 whole entry, looked up): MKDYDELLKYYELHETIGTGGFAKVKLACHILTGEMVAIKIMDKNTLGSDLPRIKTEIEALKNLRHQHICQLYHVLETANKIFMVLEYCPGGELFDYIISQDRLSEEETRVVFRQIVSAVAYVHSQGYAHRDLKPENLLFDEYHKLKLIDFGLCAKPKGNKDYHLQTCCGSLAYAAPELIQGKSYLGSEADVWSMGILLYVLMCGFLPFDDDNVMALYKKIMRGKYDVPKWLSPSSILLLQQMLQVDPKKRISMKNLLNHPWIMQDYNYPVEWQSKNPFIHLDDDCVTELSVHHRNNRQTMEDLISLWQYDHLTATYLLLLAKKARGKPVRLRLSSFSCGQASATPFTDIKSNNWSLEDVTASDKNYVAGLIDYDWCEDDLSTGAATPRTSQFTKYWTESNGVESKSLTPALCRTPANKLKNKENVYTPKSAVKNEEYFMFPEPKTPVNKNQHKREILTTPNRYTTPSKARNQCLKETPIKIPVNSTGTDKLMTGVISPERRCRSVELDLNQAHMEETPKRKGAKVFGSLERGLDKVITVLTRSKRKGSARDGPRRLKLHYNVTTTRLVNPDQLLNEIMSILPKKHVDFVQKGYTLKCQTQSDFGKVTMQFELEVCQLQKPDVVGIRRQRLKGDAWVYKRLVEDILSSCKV
# protocolConditions: at 0.1 µM
Label label 1 when inhibition is at or above 2%; otherwise label label 0.

Fc1ccc(-c2ncn(C3CCNCC3)c2-c2ccnc(Oc3ccccc3)n2)cc1: label 1
CCn1c(-c2nonc2N)nc2c(C#CC(C)(C)O)ncc(OC[C@@H]3CCCN3)c21: label 0

Decide: inhibition of COc1cc2c(cc1Nc1nc(Nc3ccsc3C(N)=O)c3cc[nH]c3n1)N(C(=O)CN(C)C)CCC2 >= 2%?
label 0

Decide: inhibition of NS(=O)(=O)c1ccc(-c2ccc3c(NC(=O)C4CC4)n[nH]c3c2)cc1 >= 2%?
label 0

Decide: inhibition of Cc1cc(-c2ccco2)cc(C)c1/C=C/c1cncc(-c2nn[nH]n2)c1 >= 2%?
label 0

Decide: inhibition of NC(=O)c1sc(-n2cnc3cc(C(F)(F)F)ccc32)cc1OCc1ccccc1Br >= 2%?
label 1

Decide: inhibition of CCn1c(-c2nonc2N)nc2c(C#CC(C)(C)O)ncc(OCC3CCNCC3)c21 >= 2%?
label 1
